biological target: JNK3 kinase (Homo sapiens, UniProt P53779)
Sequence (P53779 whole entry): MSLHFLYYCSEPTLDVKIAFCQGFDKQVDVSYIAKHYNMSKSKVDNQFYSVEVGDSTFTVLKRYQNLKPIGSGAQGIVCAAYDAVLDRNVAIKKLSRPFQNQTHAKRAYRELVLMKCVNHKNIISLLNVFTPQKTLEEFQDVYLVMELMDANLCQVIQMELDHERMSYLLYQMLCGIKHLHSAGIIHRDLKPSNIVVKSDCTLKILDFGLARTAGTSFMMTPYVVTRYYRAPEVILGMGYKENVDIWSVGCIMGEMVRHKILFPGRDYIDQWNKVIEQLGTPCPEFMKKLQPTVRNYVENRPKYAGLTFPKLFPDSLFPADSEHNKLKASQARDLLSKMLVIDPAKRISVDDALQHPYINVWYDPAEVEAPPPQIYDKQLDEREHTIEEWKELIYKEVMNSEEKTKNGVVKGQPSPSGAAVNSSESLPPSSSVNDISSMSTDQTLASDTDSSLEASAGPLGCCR
pIC50: −log10 of the molar value.
Metric: pIC50

> print(dat)
                            given.smiles  reported.value
1  C#Cc1c[nH]c2ncc(-c3ccc(N(C)C)cc3)cc12          > 6.30
